meta.source: ChEMBL document CHEMBL1806468

The entries below come with measured log10(MIC) values attached.
- Tested on: Acinetobacter baumannii
- test_details: Antimicrobial activity against multidrug-resistant Acinetobacter baumannii BAA-1605 after 16 hrs by broth microdilution method
- Type: functional
- reported_conditions: BAA-1605, 16 h
In our notation, the value equals log10 of MIC in µg/mL.

See these solved cases before continuing.
CCCCCn1c(Cc2ccccc2)cnc1N.Cl
1.81
CCCCCCCCn1c(CCCCNC(=O)OCc2ccccc2)cnc1N.Cl
1.81
Cl.Nc1ncc(Cc2ccccc2)n1CCCc1ccccc1
1.51
Cl.Nc1ncc(-c2ccccc2)n1Cc1ccccc1
1.20
CCCCCCc1cnc(N)n1CCCc1ccccc1.Cl
1.51

Query block: // lookup log10(MIC) for CCCCCn1c(-c2ccccc2)cnc1N.Cl
Result block: 1.81

Query block: Another compound to check: CCCCCn1c(CCCCNC(=O)OCc2ccccc2)cnc1N.Cl
Result block: 2.11

Query block: Another compound to check: CCCCCCCCn1c(CC(C)C)cnc1N.Cl
Result block: 1.20

Query block: Another compound to check: CCCCCCc1cnc(N)n1Cc1ccccc1.Cl
Result block: 1.20

Query block: Another compound to check: CC(C)Cc1cnc(N)n1Cc1ccccc1.Cl
Result block: 2.11

Query block: Another compound to check: CCCCCCCCn1c(CCCCCC)cnc1N.Cl
Result block: 0.90

----------
- Tested on: Acinetobacter baumannii
- test_details: Antimicrobial activity against multidrug-resistant Acinetobacter baumannii BAA-1605 after 16 hrs by broth microdilution method
- Type: functional
- reported_conditions: BAA-1605, 16 h
readout_label: MIC (µg/mL)
Output spec: scalar in µg/mL, unitless text.

Query block: // lookup MIC for CCCCCCc1cnc(N)n1CCCCC.Cl
Result block: 64

Query block: Another compound to check: CCCCCCCCCCn1c(CCCCCC)cnc1N.Cl
Result block: 8

Query block: Another compound to check: CCCCCn1c(CC(C)C)cnc1N.Cl
Result block: 64

Query block: Another compound to check: CC(C)Cc1cnc(N)n1CCCc1ccccc1.Cl
Result block: 32

Query block: Another compound to check: Cl.Nc1ncc(-c2ccccc2)n1CCCc1ccccc1
Result block: 32

Query block: Another compound to check: CCCCCCCCn1c(-c2ccccc2)cnc1N.Cl
Result block: 64

Query block: Another compound to check: Cl.Nc1ncc(CCCCNC(=O)OCc2ccccc2)n1Cc1ccccc1
Result block: 64

Query block: Another compound to check: CCCCCCCCn1c(Cc2ccccc2)cnc1N.Cl
Result block: 128

Query block: Another compound to check: Cl.Nc1ncc(CCCCNC(=O)OCc2ccccc2)n1CCCc1ccccc1
Result block: 32

----------
The entries below come with measured MIC values attached.
- Tested on: Klebsiella pneumoniae
- test_details: Antimicrobial activity against carbapenem-resistant Klebsiella pneumoniae BAA-2146 expressing […] gene after 16 hrs by broth microdilution method
- Assay type: functional
- reported_conditions: BAA-2146, 16 h

See these solved cases before continuing.
CCCCCn1c(CCCCNC(=O)OCc2ccccc2)cnc1N.Cl
> 128 µg/mL
CCCCCCCCn1c(Cc2ccccc2)cnc1N.Cl
> 128 µg/mL

// below: MIC requested for another compound
Query block: // lookup MIC for CCCCCn1c(-c2ccccc2)cnc1N.Cl
Result block: > 128 µg/mL
